# experimental system: Muscarinic acetylcholine receptor M2 (Homo sapiens); further: assay procedure not described here
# Sequence (P08172 whole entry): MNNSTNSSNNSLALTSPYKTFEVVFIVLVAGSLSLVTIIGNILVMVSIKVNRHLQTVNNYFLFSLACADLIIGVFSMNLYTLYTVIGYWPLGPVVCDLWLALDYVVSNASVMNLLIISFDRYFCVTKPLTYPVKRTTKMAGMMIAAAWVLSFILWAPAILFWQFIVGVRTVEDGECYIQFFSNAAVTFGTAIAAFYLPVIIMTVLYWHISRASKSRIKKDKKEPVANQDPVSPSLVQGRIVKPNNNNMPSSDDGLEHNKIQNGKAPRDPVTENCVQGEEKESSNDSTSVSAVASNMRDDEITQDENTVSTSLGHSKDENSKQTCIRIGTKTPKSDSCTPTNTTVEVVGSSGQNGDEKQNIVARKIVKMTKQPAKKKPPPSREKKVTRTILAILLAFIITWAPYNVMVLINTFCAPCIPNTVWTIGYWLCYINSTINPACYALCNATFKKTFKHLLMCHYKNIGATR
# Assay type: functional, cell-based
Kindly supply the reported AC50 values for the records listed here.

Answer with reported AC50 of CC(=O)OCC(=O)[C@@]12OC3(CCCC3)O[C@@H]1C[C@H]1[C@@H]3CCC4=CC(=O)C=C[C@]4(C)[C@@]3(F)[C@@H](O)C[C@@]12C [AMCINONIDE]
> 10 µM

Fill in AC50 for record NS(=O)(=O)c1cc2c(cc1Cl)NCNS2(=O)=O [HYDROCHLOROTHIAZIDE]
> 10 µM

Give recorded AC50. `CCCCCCCCCCCC[N+](C)(C)CCOc1ccccc1`
14 µM

Please give the documented AC50 of CCOc1cc(N)c([N+](=O)[O-])cc1C(=O)NC1CCN(CC2CC=CCC2)CC1 (centres undefined) [CINITAPRIDE]
> 30 µM

---

# experimental system: UniProtKB P08913
# Sequence (P08913 whole entry): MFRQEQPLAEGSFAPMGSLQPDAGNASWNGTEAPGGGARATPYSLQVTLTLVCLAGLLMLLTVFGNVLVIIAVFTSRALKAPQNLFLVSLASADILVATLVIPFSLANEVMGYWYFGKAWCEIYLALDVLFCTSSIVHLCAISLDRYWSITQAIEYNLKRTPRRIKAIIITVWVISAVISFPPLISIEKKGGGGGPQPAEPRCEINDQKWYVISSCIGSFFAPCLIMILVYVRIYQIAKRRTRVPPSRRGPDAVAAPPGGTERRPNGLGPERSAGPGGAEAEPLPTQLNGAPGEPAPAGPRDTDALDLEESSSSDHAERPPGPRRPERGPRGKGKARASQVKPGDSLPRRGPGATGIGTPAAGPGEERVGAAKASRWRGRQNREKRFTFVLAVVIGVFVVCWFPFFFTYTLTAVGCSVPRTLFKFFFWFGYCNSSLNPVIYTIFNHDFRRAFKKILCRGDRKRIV
# Assay type: functional, cell-based
measurement type: AC50

Given `C=C1C[C@@H]2[C@H](CC[C@]3(C)C(=O)CC[C@@H]23)[C@@]2(C)C=CC(=O)C=C12` , respond with its AC50.
> 10 µM

Note down AC50 recorded for `O=C(O)Cc1cn(-c2ccccc2)nc1-c1ccc(Cl)cc1`
> 30 µM

Please give measured AC50 of the following entry: Cc1cccc(C)c1OCC(C)N (centres undefined)
> 30 µM

Tell me AC50 reported for `CCC1(C2=CCCCCC2)C(=O)NC(=O)NC1=O`
> 10 µM

Specify reported AC50 for the molecule shown: `CC(C)(N)Cc1ccc(Cl)cc1`
> 10 µM

Read off the recorded AC50 for `[H]/N=C(/N)c1ccc(NCc2nc3cc(C(=O)N(CCC(=O)O)c4ccccn4)ccc3n2C)cc1`
> 30 µM

Identify the reported AC50 for the following entry. O=C(CCCCC(=O)Nc1c(I)cc(I)c(C(=O)O)c1I)Nc1c(I)cc(I)c(C(=O)O)c1I [IODIPAMIDE]
> 10 µM

Tell me AC50 reported for CC(C)NCC1CCc2cc(CO)c([N+](=O)[O-])cc2N1 (centres undefined)
> 10 µM

Recall and state the measured AC50 for `CN[C@@H](C)[C@H](O)c1ccccc1` .
> 10 µM

---

# experimental system: UniProtKB P28223
# Sequence (P28223 whole entry): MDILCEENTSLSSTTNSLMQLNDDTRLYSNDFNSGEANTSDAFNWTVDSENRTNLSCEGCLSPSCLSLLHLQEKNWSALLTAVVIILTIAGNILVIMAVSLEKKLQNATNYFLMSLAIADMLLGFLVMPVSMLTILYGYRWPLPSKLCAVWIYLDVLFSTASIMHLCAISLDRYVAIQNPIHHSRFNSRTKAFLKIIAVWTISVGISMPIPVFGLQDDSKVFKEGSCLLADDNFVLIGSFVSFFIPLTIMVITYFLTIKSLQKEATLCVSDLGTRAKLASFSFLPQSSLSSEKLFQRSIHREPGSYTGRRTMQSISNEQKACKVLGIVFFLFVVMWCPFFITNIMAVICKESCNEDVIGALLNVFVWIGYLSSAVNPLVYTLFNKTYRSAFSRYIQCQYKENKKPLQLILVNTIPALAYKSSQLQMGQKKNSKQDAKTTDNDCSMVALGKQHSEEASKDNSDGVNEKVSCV
# Format: functional, cell-based
measurement type: AC50

Supply reported AC50 belonging to this compound: CC(=O)N(CC(O)CO)c1c(I)c(C(=O)NCC(O)CO)c(I)c(C(=O)NCC(O)CO)c1I (stereo not given) [IOHEXOL]
> 30 µM

Let me know recorded AC50 for CN1CCC2=C(C1)C(c1ccccc1)c1ccccc12 (stereo not given) , thanks.
> 10 µM

Quickly give me recorded AC50 for `C1COC(NC(C2CC2)C2CC2)=N1`
> 30 µM

Answer with reported AC50 of `CN(CCCN1c2ccccc2CCc2ccccc21)CC(=O)c1ccc(Cl)cc1`
6.6 µM

Provide one value: measured AC50 of CCCCC(C)(O)C/C=C/[C@H]1[C@H](O)CC(=O)[C@@H]1CCCCCCC(=O)OC (stereo not given in full)
> 30 µM
